Cited source for all entries: the supplement of paper PMC11061612

# Tested on: KYSE-450 (Esophageal Squamous Cell Carcinoma)
# procedure-summary: combination Emax (second highest fraction inhibited in the dose matrix, 72 h); higher = more inhibition; extreme values may be limits of the assay

molecule	tested-system	combination Emax
COc1cc2ncnc(Nc3ccc(F)c(Cl)c3)c2cc1OCCCN1CCOCC1 [Gefitinib] + CC(C)n1c(=O)n(C)c2cnc3cc(F)c(-c4ccc(OCCCN5CCCCC5)nc4)cc3c21 [AZD1390] (first compound max 10 µM, 7x7, partner max 0.3 µM)	KYSE-450 (Esophageal Squamous Cell Carcinoma)	0.338
CN(C)CCCOc1ccc(-c2ccc3ncc4c(c3c2)n(C2CCOCC2)c(=O)n4C)cn1 [AZD0156] + C[C@@H]1COCCN1C2=NC(=NC(=C2)C3(CC3)[S@](=N)(=O)C)C4=C5C=CNC5=NC=C4 [AZD6738] (first compound max 1 µM, 7x7, partner max 10 µM)	KYSE-450 (Esophageal Squamous Cell Carcinoma)	0.649
NC1(C(=O)N[C@@H](CCO)c2ccc(Cl)cc2)CCN(c2ncnc3[nH]ccc23)CC1 [Capivasertib] + C[C@@H]1COCCN1C2=NC(=NC(=C2)C3(CC3)[S@](=N)(=O)C)C4=C5C=CNC5=NC=C4 [AZD6738] (first compound max 10 µM, 7x7, partner max 10 µM)	KYSE-450 (Esophageal Squamous Cell Carcinoma)	0.452
CN(CCO)CC[C@H](CSc1ccccc1)Nc1ccc(S(=O)(=O)NC(=O)c2ccc(N3CCC([C@@H](O)c4ccccc4-c4ccc(Cl)cc4)CC3)cc2)cc1S(=O)(=O)C(F)(F)F [AZD4320] + C=CCn1c(=O)c2cnc(Nc3ccc(N4CCN(C)CC4)cc3)nc2n1-c1cccc(C(C)(C)O)n1 [AZD1775] (first compound max 1 µM, partner max 1 µM)	KYSE-450 (Esophageal Squamous Cell Carcinoma)	0.64

---

# Test system: Hs-766T (Pancreatic Carcinoma)
# procedure-summary: combination Emax (second highest fraction inhibited in the dose matrix, 72 h); higher = more inhibition; extreme values may be limits of the assay
Reported combination Emax values follow for various compounds

compound	combination Emax
Cc1c2c(nn1C)CSCc1cc(n(C)n1)CSc1cc(c3ccccc3c1)OCCCc1c(C(=O)O)n(C)c3c-2c(Cl)ccc13 [AZD5991] + C1CN(CCC1(C(=O)N[C@@H](CCO)C2=CC=C(C=C2)Cl)N)C3=NC=NC4=C3C=CN4 [Capivasertib] (first compound max 1 µM, 7x7, partner max 3 µM)	0.23
CS(=O)(=O)CCNCc1ccc(-c2ccc3ncnc(Nc4ccc(OCc5cccc(F)c5)c(Cl)c4)c3c2)o1 [Lapatinib] + Cn1cnc2c(F)c(Nc3ccc(Br)cc3Cl)c(C(=O)NOCCO)cc21 [Selumetinib] (first compound max 10 µM, 7x7, partner max 10 µM)	0.582
CS(=O)(=O)CCNCc1ccc(-c2ccc3ncnc(Nc4ccc(OCc5cccc(F)c5)c(Cl)c4)c3c2)o1 [Lapatinib] + NC1(c2ccc(-c3nc4ccn5c(=O)[nH]nc5c4cc3-c3ccccc3)cc2)CCC1 [MK-2206] (first compound max 10 µM, 7x7, partner max 10 µM)	0.303
CN(CCO)CC[C@H](CSc1ccccc1)Nc1ccc(S(=O)(=O)NC(=O)c2ccc(N3CCC([C@@H](O)c4ccccc4-c4ccc(Cl)cc4)CC3)cc2)cc1S(=O)(=O)C(F)(F)F [AZD4320] + C[C@@H](Nc1cc(F)cc(F)c1)c1cc(C(=O)N(C)C)cc2c(=O)cc(N3CCOCC3)oc12 [AZD8186] (first compound max 1 µM, 7x7, partner max 3 µM)	0.469
COc1cc2c(cc1OCCCCCOc1cc3c(cc1OC)C(=O)N1C=C(C)C[C@H]1C=N3)N=C[C@@H]1CC(C)=CN1C2=O [SG3199] + O=C(c1cc(Cc2n[nH]c(=O)c3ccccc23)ccc1F)N1CCN(C(=O)C2CC2)CC1 [Olaparib] (first compound max 0.001 µM, 7x7, partner max 10 µM)	0.0914
N#Cc1cnc(Nc2cc(NC[C@H]3CNCCO3)c(C(F)(F)F)cn2)cn1 [SRA737] + O=c1[nH]cc(F)c(=O)[nH]1 [5-Fluorouracil] (first compound max 10 µM, 7x7, partner max 20 µM)	0.405
COc1cccc(OCCCN)c1-c1cc(Nc2cnc(C#N)cn2)n[nH]1 [Prexasertib] + Cc1cc2ncnn2cc1Nc1ncc2c(n1)n(C1CCOCC1)c(=O)n2C [AZD7648] (first compound max 1 µM, 7x7, partner max 10 µM)	0.709

---

# System: BT-549 (Breast Carcinoma)
# procedure-summary: combination Emax (second highest fraction inhibited in the dose matrix, 72 h); higher = more inhibition; extreme values may be limits of the assay

compound	tested-system	combination Emax
NC1(C(=O)N[C@@H](CCO)c2ccc(Cl)cc2)CCN(c2ncnc3[nH]ccc23)CC1 [Capivasertib] + CC(C)n1c(=O)n(C)c2cnc3cc(F)c(-c4ccc(OCCCN5CCCCC5)nc4)cc3c21 [AZD1390] (first compound max 10 µM, 7x7, partner max 0.3 µM)	BT-549 (Breast Carcinoma)	0.353
CC1(C)CCC(CN2CCN(c3ccc(C(=O)NS(=O)(=O)c4ccc(NCC5CCOCC5)c([N+](=O)[O-])c4)c(Oc4cnc5[nH]ccc5c4)c3)CC2)=C(c2ccc(Cl)cc2)C1 [Venetoclax] + C=CCn1c(=O)c2cnc(Nc3ccc(N4CCN(C)CC4)cc3)nc2n1-c1cccc(C(C)(C)O)n1 [AZD1775] (first compound max 1 µM, partner max 1 µM)	BT-549 (Breast Carcinoma)	0.778
COc1cccc(OCCCN)c1-c1cc(Nc2cnc(C#N)cn2)n[nH]1 [Prexasertib] + O=C(c1cc(Cc2n[nH]c(=O)c3ccccc23)ccc1F)N1CCN(C(=O)C2CC2)CC1 [Olaparib] (first compound max 1 µM, 7x7, partner max 10 µM)	BT-549 (Breast Carcinoma)	0.654
CCN(CCO)CCCOc1ccc2c(Nc3cc(CC(=O)Nc4cccc(F)c4)[nH]n3)ncnc2c1 [AZD2811] + O=C(c1cc(Cc2n[nH]c(=O)c3ccccc23)ccc1F)N1CCN(C(=O)C2CC2)CC1 [Olaparib] (first compound max 1 µM, 7x7, partner max 10 µM)	BT-549 (Breast Carcinoma)	0.244
O=C(c1cc(Cc2n[nH]c(=O)c3ccccc23)ccc1F)N1CCN(C(=O)C2CC2)CC1 [Olaparib] + COc1nnc2ccc(N3CCC(c4ccc(OCCN5CCN(C)C(=O)[C@H]5C)cc4)CC3)nn12 [AZD5153] (first compound max 10 µM, 7x7, partner max 1 µM)	BT-549 (Breast Carcinoma)	0.462

---

# Test system: SCC-15 (Oral Cavity Carcinoma)
# procedure-summary: combination Emax (second highest fraction inhibited in the dose matrix, 72 h); higher = more inhibition; extreme values may be limits of the assay
Classify as follows. Reported combination Emax greater than or equal to 0.4: Criterion met. Reported combination Emax below: Criterion not met.

compound	tested-system	label-class
CCN(CCO)CCCOc1ccc2c(Nc3cc(CC(=O)Nc4cccc(F)c4)[nH]n3)ncnc2c1 [AZD2811] + O=C(c1cc(Cc2n[nH]c(=O)c3ccccc23)ccc1F)N1CCN(C(=O)C2CC2)CC1 [Olaparib] (first compound max 1 µM, 7x7, partner max 10 µM)	SCC-15 (Oral Cavity Carcinoma)	Criterion not met
CC1(C)CCC(CN2CCN(c3ccc(C(=O)NS(=O)(=O)c4ccc(NCC5CCOCC5)c([N+](=O)[O-])c4)c(Oc4cnc5[nH]ccc5c4)c3)CC2)=C(c2ccc(Cl)cc2)C1 [Venetoclax] + C1CN(CCC1(C(=O)N[C@@H](CCO)C2=CC=C(C=C2)Cl)N)C3=NC=NC4=C3C=CN4 [Capivasertib] (first compound max 1 µM, 7x7, partner max 3 µM)	SCC-15 (Oral Cavity Carcinoma)	Criterion not met
Cc1c2c(nn1C)CSCc1cc(n(C)n1)CSc1cc(c3ccccc3c1)OCCCc1c(C(=O)O)n(C)c3c-2c(Cl)ccc13 [AZD5991] + C[C@@H]1COCCN1C2=NC(=NC(=C2)C3(CC3)[S@](=N)(=O)C)C4=C5C=CNC5=NC=C4 [AZD6738] (first compound max 1 µM, 7x7, partner max 10 µM)	SCC-15 (Oral Cavity Carcinoma)	Criterion met
CC(=O)c1c(C)c2cnc(Nc3ccc(N4CCNCC4)cn3)nc2n(C2CCCC2)c1=O [Palbociclib] + CC1(C)CCC(CN2CCN(c3ccc(C(=O)NS(=O)(=O)c4ccc(NCC5CCOCC5)c([N+](=O)[O-])c4)c(Oc4cnc5[nH]ccc5c4)c3)CC2)=C(c2ccc(Cl)cc2)C1 [Venetoclax] (first compound max 10 µM, 7x7, partner max 1 µM)	SCC-15 (Oral Cavity Carcinoma)	Criterion not met
CN(CCO)CC[C@H](CSc1ccccc1)Nc1ccc(S(=O)(=O)NC(=O)c2ccc(N3CCC([C@@H](O)c4ccccc4-c4ccc(Cl)cc4)CC3)cc2)cc1S(=O)(=O)C(F)(F)F [AZD4320] + C[C@@H]1COCCN1C2=NC(=NC(=C2)C3(CC3)[S@](=N)(=O)C)C4=C5C=CNC5=NC=C4 [AZD6738] (first compound max 1 µM, 7x7, partner max 10 µM)	SCC-15 (Oral Cavity Carcinoma)	Criterion met
Cn1cnc2c(F)c(Nc3ccc(Br)cc3Cl)c(C(=O)NOCCO)cc21 [Selumetinib] + C[C@@H]1COCCN1C2=NC(=NC(=C2)C3(CC3)[S@](=N)(=O)C)C4=C5C=CNC5=NC=C4 [AZD6738] (first compound max 10 µM, 7x7, partner max 10 µM)	SCC-15 (Oral Cavity Carcinoma)	Criterion met
